Hello, the source for this data is PubChem BioAssay AID1863, in case you need it.

Please provide measured inhibition for the entries that follow.
# ASSAY_SUMMARY: PhoP-dependent GFP reporter repression – Salmonella Typhimurium, primary screen (AID 1863);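 also: 0% = low Mg2+ inducing control and 100% = high Mg2+ repressing control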
# ASSAY_CONTEXT: S. Typhimurium PhoP-regulated promoter GFP reporter, 4 h; at 50 µM; stronger effect = higher value
Out of some 300,000 compounds screened, about 480 (0.16%) were called active. Not all results are given here. Entries with a potency or affinity are not part of this list.
Respond with the bare value in %.

Q: Bench note: what inhibition did O=C(c1cc2nc(-c3ccco3)cc(C(F)(F)F)n2n1)N1CCN(c2ccc(F)cc2)CC1 show?
Result: -5.29

Q: Also check COc1cc(NS(=O)(=O)c2ccc(NS(=O)(=O)c3ccc(C)cc3)cc2)nc(OC)n1
Result: 12.1

Q: Also check COc1ccc(C(=O)N/N=C/c2c[nH]c3ccccc23)cc1
Result: 4.37

Q: Also check CCCCCCSc1cc(-c2nc3ccc(Cl)cn3c2NCCCC)ccc1OC
Result: -3.84

Q: Also check CC(=O)Oc1ccc(OC(C)=O)c(SCCCCCCl)c1
Result: -1.06

Q: Also check NC(=O)C1CCN(C(=O)CSc2ccccn2)CC1
Result: -5.25

Q: Also check O=C(NNC(=O)c1ccccc1OCc1ccc(F)cc1)c1ccccc1O
Result: 1.71

Q: Also check O=C(N/N=C/c1ccccc1F)c1cccc2ccccc12
Result: -1.58

Q: Also check Cc1ccc2c(=O)c(C(=O)c3ccc(F)cc3)cn(CC(=O)NCc3ccco3)c2n1
Result: -4.56

Q: Also check CCOc1ccc(-c2nc(S(=O)(=O)c3ccccc3)c(NC)o2)cc1
Result: -1.53

Q: Also check COc1ccc2cc(C(=O)N/N=C/c3sc4ccccc4c3O)ccc2c1
Result: 9.41

====

# ASSAY_SUMMARY: PhoP-dependent GFP reporter repression – Salmonella Typhimurium, primary screen (AID 1863);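 also: 0% = low Mg2+ inducing control and 100% = high Mg2+ repressing control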
# ASSAY_CONTEXT: S. Typhimurium PhoP-regulated promoter GFP reporter, 4 h; at 50 µM; stronger effect = higher value
Hit rate of the full screen: of about 300,000 compounds, about 480 (0.16%) were called active. These entries were drawn from the full list. Potency and affinity values are given separately.
Please provide measured inhibition for the entries that follow.
Respond with the bare value in %.

Q: Bench note: what inhibition did CCOc1ncccc1C(=O)NCCCSc1ccccc1 show?
Result: 4.02

Q: Also check O=C1CC(C(=O)Nc2ccccc2)N=C(N2CCCCC2)N1 (stereo unspecified)
Result: 0.85

Q: Also check CCOC(=O)CN1CC23C=CC(O2)C(C(=O)NCc2ccc(C)cc2)C3C1=O (stereo unspecified)
Result: 10.7

Q: Also check O=C(O)c1ccc(NC(=O)C(c2ccccc2)c2ccccc2)cc1
Result: -7.69

Q: Also check COc1ccc(NCC(O)COc2ccc(C(C)(C)C)cc2)cc1 (stereo unspecified)
Result: 18.9

Q: Also check CCn1ncc([N+](=O)[O-])c1C(=O)Nc1ccc(C)c(C)c1
Result: -7.66

====

# ASSAY_SUMMARY: PhoP-dependent GFP reporter repression – Salmonella Typhimurium, primary screen (AID 1863);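 also: 0% = low Mg2+ inducing control and 100% = high Mg2+ repressing control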
# ASSAY_CONTEXT: S. Typhimurium PhoP-regulated promoter GFP reporter, 4 h; at 50 µM; stronger effect = higher value
About 480 (0.16%) of roughly 300,000 compounds were called active. Only a sample is shown. Entries with a potency or affinity are not part of this list.
MEASURED_PARAMETER: inhibition

Q: Bench note: what inhibition did CNC(=S)Nc1cc(C(F)(F)F)ccc1Cl show?
Result: 4.05% (inactive)

Q: Also check O=[N+]([O-])c1ccc(O)c2cccnc12
Result: 4.87% (inactive)

Q: Also check CCCN(CC(=O)Nc1ccccc1C)C(=O)COc1ccc2c(c1)CCC2
Result: -2.3% (inactive)

Q: Also check COCCN1CCC(CNCc2c(C(=O)N3CCCCC3)nc3c(C)cccn23)C1 (centres undefined)
Result: -11.8% (inactive)

Q: Also check O=C(N/N=C/c1coc2ccc(Cl)cc2c1=O)c1ccncc1
Result: 7.37% (inactive)

Q: Also check C=CCn1c(SCC(=O)OCC)nc2cc(C(=O)NCc3ccco3)ccc2c1=O
Result: -4.98% (inactive)

Q: Also check CN(C)[C@@H]1C(=O)C(C(=O)NCN2CCCC2)=C(O)[C@@]2(O)C(=O)C3=C(O)c4c(O)cccc4[C@@](C)(O)C3CC12 (some centres undefined)
Result: 1.32% (inactive)

Q: Also check O=[N+]([O-])c1ccc(O)c2ncccc12
Result: -0.36% (inactive)

Q: Also check CN1CCN(C(=O)CSc2nnc(COc3ccc(Cl)cc3)o2)CC1
Result: 5.2% (inactive)

Q: Also check O=[N+]([O-])c1c(Nc2ccc(O)cc2)cc(Cl)c2nonc12
Result: 20% (inactive)

Q: Also check O=C(NCc1ccccc1)c1cncc(Br)c1
Result: 3.01% (inactive)

Q: Also check O=[N+]([O-])c1cc([N+](=O)[O-])c2cccnc2c1Oc1ccccc1O
Result: 11.2% (inactive)

Q: Also check CCC[C@H](CN[C@@H](CNC)[C@H](C)CC)NCCc1cc(C(F)(F)F)cc(C(F)(F)F)c1
Result: 19.5% (inactive)

Q: Also check Cc1ccc(N(CC(=O)NC2CCCCC2)C(=O)CNC(=O)c2cccs2)cc1
Result: 5.02% (inactive)

Q: Also check CNC[C@@H](C)NC[C@@H](Cc1ccccc1)NCCc1ccccc1
Result: 9.81% (inactive)

Q: Also check O=Cc1c(N2CCC3(CC2)OCCO3)nc2ccccn2c1=O
Result: -5.94% (inactive)

Q: Also check O=C(NCCC1=CCCCC1)c1ccc2c(c1)N(Cc1ccccc1)C(=O)CS2
Result: 6.9% (inactive)

Q: Also check O=C(N/N=C/c1ccc(O)c2ncccc12)c1cccc(Br)c1
Result: -1.53% (inactive)

Q: Also check C=CCn1c(=NC(=O)CN2C(=O)CCC2=O)sc2cc(S(N)(=O)=O)ccc21
Result: 17% (inactive)

Q: Also check COc1ccc([N+](=O)[O-])cc1NC(=O)C(C)OC(=O)C1CC(=O)N(Cc2ccco2)C1 (centres undefined)
Result: -5.1% (inactive)

Q: Also check Cc1ccccc1N=Nc1ccc(O)c2ncccc12
Result: -2.25% (inactive)

Q: Also check CCc1ccc(S(=O)(=O)/N=C2\C=C(Nc3ccc(O)cc3)C(=O)c3ccccc32)cc1
Result: 15.4% (inactive)

Q: Also check O=C(ONC1=NCCCCC1)c1ccc(Cl)cc1
Result: -13.6% (inactive)

Q: Also check CCOC(=O)N1CCN(C(=O)c2ccc(C)c(S(=O)(=O)Nc3cccc(C)c3C)c2)CC1
Result: -9.54% (inactive)

Q: Also check O=[N+]([O-])c1cccc2c(Cl)ccnc12
Result: -15% (inactive)

Q: Also check Cc1ccc(S(=O)(=O)/N=C2/C=C(C3C(=O)CC(C)(C)CC3=O)C(=O)c3ccccc32)cc1
Result: 8.77% (inactive)

Q: Also check O=C(N/N=C/c1cc(Cl)ccc1O)c1ccc(Br)cc1
Result: 4.94% (inactive)

Q: Also check O=C(N/N=C/c1cc([N+](=O)[O-])ccc1O)C1CCCCC1
Result: 1.18% (inactive)

Q: Also check O=C(N/N=C/c1coc2ccc(Cl)cc2c1=O)c1ccc(O)cc1
Result: 10.4% (inactive)

Q: Also check Nc1cc(N2CCCCCC2)c2nonc2c1[N+](=O)[O-]
Result: -3.85% (inactive)

Q: Also check Nc1cc(Nc2ccccc2)c2nonc2c1[N+](=O)[O-]
Result: -3.49% (inactive)

Q: Also check Cc1ccc(S(=O)(=O)/N=C2/C=C(Sc3ncn[nH]3)C(=O)c3ccccc32)c(C)c1
Result: 192% (inactive)

Q: Also check CCN(CC)C(=O)COc1ccc(N(C)S(=O)(=O)c2ccc(NC(C)=O)cc2)cc1
Result: -5.37% (inactive)

Q: Also check CC(C)(C)CN1CCN(CCCc2ccccc2)C(CCO)C1 (centres undefined)
Result: -4.44% (inactive)
